# test-system: Receptor-type tyrosine-protein phosphatase beta (Homo sapiens)
# Sequence (P23467 whole entry): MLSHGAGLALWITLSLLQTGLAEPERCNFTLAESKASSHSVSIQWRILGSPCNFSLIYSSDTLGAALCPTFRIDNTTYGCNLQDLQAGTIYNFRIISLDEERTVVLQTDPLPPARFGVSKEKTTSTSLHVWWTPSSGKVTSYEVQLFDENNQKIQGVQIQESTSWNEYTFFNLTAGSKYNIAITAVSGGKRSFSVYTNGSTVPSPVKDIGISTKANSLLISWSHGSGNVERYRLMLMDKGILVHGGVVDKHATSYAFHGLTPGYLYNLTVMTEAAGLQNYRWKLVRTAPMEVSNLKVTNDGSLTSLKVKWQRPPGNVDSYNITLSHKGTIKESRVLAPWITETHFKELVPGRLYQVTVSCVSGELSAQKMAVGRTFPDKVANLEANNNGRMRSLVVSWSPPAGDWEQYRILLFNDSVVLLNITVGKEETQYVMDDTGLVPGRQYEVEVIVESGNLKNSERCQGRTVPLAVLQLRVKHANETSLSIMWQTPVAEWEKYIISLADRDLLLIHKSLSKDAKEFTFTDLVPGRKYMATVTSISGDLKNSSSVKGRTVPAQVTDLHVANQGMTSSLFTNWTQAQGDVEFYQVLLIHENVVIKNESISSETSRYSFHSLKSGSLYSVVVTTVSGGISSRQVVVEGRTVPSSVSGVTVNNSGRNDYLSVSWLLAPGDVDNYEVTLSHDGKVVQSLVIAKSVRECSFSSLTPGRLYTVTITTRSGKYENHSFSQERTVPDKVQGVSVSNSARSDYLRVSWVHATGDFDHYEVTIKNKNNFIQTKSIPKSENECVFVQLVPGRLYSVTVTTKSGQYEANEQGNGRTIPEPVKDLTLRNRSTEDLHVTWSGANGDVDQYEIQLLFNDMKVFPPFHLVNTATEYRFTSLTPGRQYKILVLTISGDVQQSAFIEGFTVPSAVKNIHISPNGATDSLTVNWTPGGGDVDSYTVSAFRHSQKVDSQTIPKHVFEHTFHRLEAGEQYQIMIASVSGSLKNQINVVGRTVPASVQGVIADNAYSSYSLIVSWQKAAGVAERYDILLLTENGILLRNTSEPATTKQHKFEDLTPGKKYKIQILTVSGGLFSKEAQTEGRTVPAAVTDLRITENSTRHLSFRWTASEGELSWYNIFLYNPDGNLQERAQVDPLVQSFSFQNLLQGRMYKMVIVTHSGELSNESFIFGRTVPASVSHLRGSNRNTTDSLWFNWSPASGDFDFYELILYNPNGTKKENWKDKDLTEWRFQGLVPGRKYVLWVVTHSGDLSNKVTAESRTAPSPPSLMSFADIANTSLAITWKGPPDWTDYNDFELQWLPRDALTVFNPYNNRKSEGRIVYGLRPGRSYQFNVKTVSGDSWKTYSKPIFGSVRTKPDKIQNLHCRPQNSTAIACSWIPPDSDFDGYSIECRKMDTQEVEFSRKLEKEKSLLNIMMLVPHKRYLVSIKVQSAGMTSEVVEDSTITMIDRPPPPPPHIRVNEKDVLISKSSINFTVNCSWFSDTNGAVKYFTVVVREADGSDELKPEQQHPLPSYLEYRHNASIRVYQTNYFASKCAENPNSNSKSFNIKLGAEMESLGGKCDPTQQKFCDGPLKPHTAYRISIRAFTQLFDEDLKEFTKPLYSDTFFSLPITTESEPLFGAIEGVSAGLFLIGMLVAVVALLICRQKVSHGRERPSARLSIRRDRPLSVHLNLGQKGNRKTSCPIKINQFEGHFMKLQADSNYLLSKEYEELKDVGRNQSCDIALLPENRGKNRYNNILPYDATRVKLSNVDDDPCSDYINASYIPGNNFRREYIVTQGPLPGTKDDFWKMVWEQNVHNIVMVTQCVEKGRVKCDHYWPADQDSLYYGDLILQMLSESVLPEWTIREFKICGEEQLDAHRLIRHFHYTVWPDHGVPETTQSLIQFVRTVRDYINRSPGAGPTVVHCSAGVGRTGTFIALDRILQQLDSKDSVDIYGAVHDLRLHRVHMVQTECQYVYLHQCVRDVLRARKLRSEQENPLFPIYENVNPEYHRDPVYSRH
Ki strictly less than 20 µM = criterion met. Otherwise criterion not met.

// below: answered compounds
| structure | label-class |
| --- | --- |
| O=C(O)C(=O)Nc1ccc(I)cc1C(=O)O | criterion met |
| O=C(O)C(=O)Nc1sc2c(c1C(=O)O)CCCC2 | criterion met |
| O=C(O)C(=O)Nc1cc2[nH]ccc2cc1C(=O)O | criterion met |

[in] Does the reported Ki of the following compound sit strictly below 20 µM? O=C(O)C(=O)Nc1sc2c(c1C(=O)O)CCO[C@H]2COC1=NS(=O)(=O)c2ccccc21
[out] criterion not met

[in] Would you kindly verify if Ki of O=C(O)C(=O)Nc1ccccc1C(=O)O is strictly less than 20 µM?
[out] criterion not met

[in] Lab log: compare recorded Ki with 20 µM; is it strictly lower for O=C(O)C(=O)Nc1ccc2cc[nH]c2c1C(=O)O ?
[out] criterion met
